System: Mus musculus
Assay: Toxicity in BALB/C mouse assessed as decrease in dry femur weight at 1.43 umol/kg/day, po administered for 15 days
Assay type: organism-based
Settings: in vivo, 360 h
Residues, ends and D or L forms follow the SMILES beside them. *: point of attachment. Succinyl(O21-dexamethasone) = C[C@@H]1C[C@H]2[C@@H]3CCC4=CC(=O)C=C[C@]4(C)[C@@]3(F)[C@@H](O)C[C@]2(C)[C@@]1(O)C(=O)COC(=O)CCC(=O)*
quantityKind: Activity

Could you share what Activity was measured for C[C@@H]1C[C@H]2[C@@H]3CCC4=CC(=O)C=C[C@]4(C)[C@@]3(F)[C@@H](O)C[C@]2(C)[C@@]1(O)C(=O)CO [DEXAMETHASONE] , tested on Mus musculus?
Toxic

Would you mind doing C[C@@H]1C[C@H]2[C@@H]3CCC4=CC(=O)C=C[C@]4(C)[C@@]3(F)[C@@H](O)C[C@]2(C)[C@@]1(O)C(=O)COC(=O)CCC(=O)N[C@@H](CCCNC(=N)N)C(=O)NCC(=O)N[C@@H](CC(=O)O)C(=O)N[C@@H](CO)C(=O)O ({Succinyl(O21-dexamethasone)}-RGDS-OH) as well?
Non-toxic

And the next one, CC(C)[C@H](NC(=O)[C@H](CC(=O)O)NC(=O)CNC(=O)[C@H](CCCNC(=N)N)NC(=O)CCC(=O)OCC(=O)[C@@]1(O)[C@H](C)C[C@H]2[C@@H]3CCC4=CC(=O)C=C[C@]4(C)[C@@]3(F)[C@@H](O)C[C@@]21C)C(=O)O ({Succinyl(O21-dexamethasone)}-RGDV-OH) ?
Non-toxic

Another compound to look at: C[C@@H]1C[C@H]2[C@@H]3CCC4=CC(=O)C=C[C@]4(C)[C@@]3(F)[C@@H](O)C[C@]2(C)[C@@]1(O)C(=O)COC(=O)CCC(=O)N[C@@H](CCCNC(=N)N)C(=O)NCC(=O)N[C@@H](CC(=O)O)C(=O)N[C@@H](Cc1ccccc1)C(=O)O ({Succinyl(O21-dexamethasone)}-RGDF-OH)
Non-toxic

---

Measured Activity by item
System: Mus musculus
Experiment: Toxicity in BALB/C mouse assessed as total volumetric bone mineral density at 1.43 umol/kg/day, po administered for 15 days (reference value: 554.3 +/- 17.2 mg/cm3)
Type: organism-based
Conditions: in vivo, 360 h
Residues, ends and D or L forms follow the SMILES beside them. *: point of attachment. Succinyl(O21-dexamethasone) = C[C@@H]1C[C@H]2[C@@H]3CCC4=CC(=O)C=C[C@]4(C)[C@@]3(F)[C@@H](O)C[C@]2(C)[C@@]1(O)C(=O)COC(=O)CCC(=O)*
Could you give me the number in mg/cm3? Just the number is fine.

Examples with answers:
Give Mus musculus Activity for C[C@@H]1C[C@H]2[C@@H]3CCC4=CC(=O)C=C[C@]4(C)[C@@]3(F)[C@@H](O)C[C@]2(C)[C@@]1(O)C(=O)COC(=O)CCC(=O)N[C@@H](CCCNC(=N)N)C(=O)NCC(=O)N[C@@H](CC(=O)O)C(=O)N[C@@H](Cc1ccccc1)C(=O)O ({Succinyl(O21-dexamethasone)}-RGDF-OH)
555.1

Then this compound: C[C@@H]1C[C@H]2[C@@H]3CCC4=CC(=O)C=C[C@]4(C)[C@@]3(F)[C@@H](O)C[C@]2(C)[C@@]1(O)C(=O)COC(=O)CCC(=O)N[C@@H](CCCNC(=N)N)C(=O)NCC(=O)N[C@@H](CC(=O)O)C(=O)N[C@@H](CO)C(=O)O ({Succinyl(O21-dexamethasone)}-RGDS-OH)
558.5

And CC(C)[C@H](NC(=O)[C@H](CC(=O)O)NC(=O)CNC(=O)[C@H](CCCNC(=N)N)NC(=O)CCC(=O)OCC(=O)[C@@]1(O)[C@H](C)C[C@H]2[C@@H]3CCC4=CC(=O)C=C[C@]4(C)[C@@]3(F)[C@@H](O)C[C@@]21C)C(=O)O ({Succinyl(O21-dexamethasone)}-RGDV-OH) ?
540.3

Further cases:
API: value(readout= Activity, system= Mus musculus, query= C[C@@H]1C[C@H]2[C@@H]3CCC4=CC(=O)C=C[C@]4(C)[C@@]3(F)[C@@H](O)C[C@]2(C)[C@@]1(O)C(=O)CO [DEXAMETHASONE] )
506.3
